So I've got a bunch of molecules here, and I need their MIC values.
System: Staphylococcus epidermidis
Assay: Antibacterial activity against Staphylococcus epidermidis ATCC 12228 incubated for 18 hrs by CLSI based broth dilution method
Assay type: functional
Where a SMILES comes first, the peptide text is derived from it. Bridges are numbered along the chain shown (N, C = ends). [ ]: non-standard residue; d: D form. The star is where a group is joined. X1 = CC[C@H](C)CCCCC(=O)*; Dab = NCC[C@H](N)C(=O)O
# number only, unit µM dropped from output

Q) # query: MIC | item N=C(N)NCCC[C@H](NC(=O)[C@H](CCCNC(=N)N)NC(=O)[C@H](Cc1c[nH]c2ccccc12)NC(=O)[C@H](CCCNC(=N)N)NC(=O)[C@H](CCCNC(=N)N)NC(=O)[C@H](Cc1c[nH]c2ccccc12)NC(=O)[C@H](Cc1c[nH]c2ccccc12)NC(=O)[C@@H](N)CCCNC(=N)N)C(=O)N[C@@H](Cc1c[nH]c2ccccc12)C(=O)N[C@@H](Cc1c[nH]c2ccccc12)C(N)=O (H-RWWRRWRRWW-NH2) | system: Staphylococcus epidermidis
A) 32

Q) Item: CC[C@H](C)[C@H](NC(=O)[C@H](CCCNC(=N)N)NC(=O)[C@H](CCCCN)NC(=O)[C@H](Cc1ccccc1)NC(=O)[C@H](Cc1ccccc1)NC(=O)CN)C(=O)N[C@@H](CCCNC(=N)N)C(=O)N[C@H](C(=O)N[C@@H](Cc1ccccc1)C(=O)N[C@@H](Cc1ccccc1)C(N)=O)[C@@H](C)O (H-GFFKRIRTFF-NH2)
A) 64

Q) Item: CC[C@H](C)[C@H](NC(=O)[C@H](CCCNC(=N)N)NC(=O)[C@H](CCCNC(=N)N)NC(=O)[C@H](Cc1ccccc1)NC(=O)[C@H](Cc1ccccc1)NC(=O)CN)C(=O)N[C@@H](CCCCN)C(=O)N[C@H](C(=O)N[C@@H](Cc1ccccc1)C(=O)N[C@@H](Cc1ccccc1)C(N)=O)[C@@H](C)O (H-GFFRRIKTFF-NH2)
A) 64

Q) Item: CC[C@H](C)CCCCC(=O)N[C@@H](CCN)C(=O)N[C@H](C(=O)N[C@@H](CCN)C(=O)N[C@H]1CCNC(=O)[C@H]([C@@H](C)O)NC(=O)[C@H](CCN)NC(=O)[C@H](CCN)NC(=O)[C@H](CC(C)C)NC(=O)[C@@H](Cc2ccccc2)NC(=O)[C@H](CCN)NC1=O)[C@@H](C)O (X1-[Dab]T[Dab][Dab][Dab][dF]L[Dab][Dab]T; lactam 4-C)
A) 32

Q) Item: CC(C)C[C@H](NC(=O)[C@H](CC(C)C)NC(=O)[C@@H](NC(=O)[C@H](CCCCN)NC(=O)[C@H](Cc1c[nH]c2ccccc12)NC(=O)[C@H](CCCNC(=N)N)NC(=O)[C@H](CCCCN)NC(=O)[C@H](CC(C)C)NC(=O)[C@H](CC(C)C)NC(=O)CN)[C@@H](C)O)C(N)=O (H-GLLKRWKTLL-NH2)
A) 16

Q) Item: CC[C@H](C)[C@H](NC(=O)[C@H](CCCNC(=N)N)NC(=O)[C@H](CCCNC(=N)N)NC(=O)[C@H](Cc1ccccc1)NC(=O)[C@H](Cc1ccccc1)NC(=O)CN)C(=O)N[C@@H](CCCNC(=N)N)C(=O)N[C@H](C(=O)N[C@@H](Cc1ccccc1)C(=O)N[C@@H](Cc1ccccc1)C(N)=O)[C@@H](C)O (H-GFFRRIRTFF-NH2)
A) 32

Q) Item: CC[C@H](C)[C@H](NC(=O)[C@H](CCCNC(=N)N)NC(=O)[C@H](CCCCN)NC(=O)[C@H](Cc1ccccc1)NC(=O)[C@H](Cc1c[nH]c2ccccc12)NC(=O)CN)C(=O)N[C@@H](CCCCN)C(=O)N[C@H](C(=O)N[C@@H](Cc1ccccc1)C(=O)N[C@@H](Cc1c[nH]c2ccccc12)C(N)=O)[C@@H](C)O (H-GWFKRIKTFW-NH2)
A) 4

Q) Item: C[C@@H](O)[C@H](NC(=O)[C@H](CCCCN)NC(=O)[C@H](Cc1c[nH]c2ccccc12)NC(=O)[C@H](CCCNC(=N)N)NC(=O)[C@H](CCCCN)NC(=O)[C@H](Cc1c[nH]c2ccccc12)NC(=O)[C@H](Cc1c[nH]c2ccccc12)NC(=O)CN)C(=O)N[C@@H](Cc1c[nH]c2ccccc12)C(=O)N[C@@H](Cc1c[nH]c2ccccc12)C(N)=O (H-GWWKRWKTWW-NH2)
A) 4

Q) Item: N=C(N)NCCC[C@H](NC(=O)[C@H](CCCCN)NC(=O)[C@H](Cc1c[nH]c2ccccc12)NC(=O)[C@H](Cc1c[nH]c2ccccc12)NC(=O)[C@@H](N)CCCCN)C(=O)N[C@@H](Cc1c[nH]c2ccccc12)C(=O)N[C@@H](CCCCN)C(=O)N[C@@H](CCCCN)C(=O)N[C@@H](Cc1c[nH]c2ccccc12)C(=O)N[C@@H](Cc1c[nH]c2ccccc12)C(N)=O (H-KWWKRWKKWW-NH2)
A) 8

====

Assay: Selectivity ratio of MHC10 for BALB/C mouse erythrocytes to MIC for fungi
Type: toxicity
Where a SMILES comes first, the peptide text is derived from it.
So I've got a bunch of molecules here, and I need their selectivity ratio values.
// no unit string in output, number only

Q) If you can, please state the reported selectivity ratio value of CC[C@H](C)[C@H](NC(=O)[C@H](CCCNC(=N)N)NC(=O)[C@H](CCCCN)NC(=O)[C@H](Cc1ccccc1)NC(=O)[C@H](Cc1c[nH]c2ccccc12)NC(=O)CN)C(=O)N[C@@H](CCCCN)C(=O)N[C@H](C(=O)N[C@@H](Cc1ccccc1)C(=O)N[C@@H](Cc1c[nH]c2ccccc12)C(N)=O)[C@@H](C)O (H-GWFKRIKTFW-NH2) .
A) 24

Q) Item: C[C@@H](O)[C@H](NC(=O)[C@H](CCCCN)NC(=O)[C@H](Cc1c[nH]c2ccccc12)NC(=O)[C@H](CCCNC(=N)N)NC(=O)[C@H](CCCCN)NC(=O)[C@H](Cc1ccccc1)NC(=O)[C@H](Cc1ccccc1)NC(=O)CN)C(=O)N[C@@H](Cc1ccccc1)C(=O)N[C@@H](Cc1ccccc1)C(N)=O (H-GFFKRWKTFF-NH2)
A) 26.9

====

So I've got a bunch of molecules here, and I need their selectivity ratio values.
Assay: Selectivity ratio of MHC10 for BALB/C mouse erythrocytes to MIC for bacteria
Format: toxicity
Where a SMILES comes first, the peptide text is derived from it.
// no unit string in output, number only

Q) If you can, please state the reported selectivity ratio value of CC(C)C[C@H](NC(=O)[C@H](C)NC(=O)[C@@H](NC(=O)[C@H](CCCCN)NC(=O)[C@H](C)NC(=O)[C@H](CCCNC(=N)N)NC(=O)[C@H](CCCCN)NC(=O)[C@H](CC(C)C)NC(=O)[C@H](C)NC(=O)CN)[C@@H](C)O)C(N)=O (H-GALKRAKTAL-NH2) .
A) 1

Q) Item: CC[C@H](C)[C@H](NC(=O)[C@H](CCCNC(=N)N)NC(=O)[C@H](CCCNC(=N)N)NC(=O)[C@H](Cc1ccccc1)NC(=O)[C@H](Cc1ccccc1)NC(=O)CN)C(=O)N[C@@H](CCCCN)C(=O)N[C@H](C(=O)N[C@@H](Cc1ccccc1)C(=O)N[C@@H](Cc1ccccc1)C(N)=O)[C@@H](C)O (H-GFFRRIKTFF-NH2)
A) 17.4

Q) Item: C[C@@H](O)[C@H](NC(=O)[C@H](CCCCN)NC(=O)[C@H](Cc1c[nH]c2ccccc12)NC(=O)[C@H](CCCNC(=N)N)NC(=O)[C@H](CCCCN)NC(=O)[C@H](Cc1c[nH]c2ccccc12)NC(=O)[C@H](Cc1c[nH]c2ccccc12)NC(=O)CN)C(=O)N[C@@H](Cc1c[nH]c2ccccc12)C(=O)N[C@@H](Cc1c[nH]c2ccccc12)C(N)=O (H-GWWKRWKTWW-NH2)
A) 4.29

Q) Item: CC(C)C[C@H](NC(=O)[C@H](CC(C)C)NC(=O)[C@@H](NC(=O)[C@H](CCCCN)NC(=O)[C@H](C)NC(=O)[C@H](CCCNC(=N)N)NC(=O)[C@H](CCCCN)NC(=O)[C@H](C)NC(=O)[C@H](CC(C)C)NC(=O)CN)[C@@H](C)O)C(N)=O (H-GLAKRAKTLL-NH2)
A) 1

Q) Item: CC[C@H](C)[C@H](NC(=O)[C@H](CCCNC(=N)N)NC(=O)[C@H](CCCNC(=N)N)NC(=O)[C@H](Cc1ccccc1)NC(=O)[C@H](Cc1ccccc1)NC(=O)CN)C(=O)N[C@@H](CCCNC(=N)N)C(=O)N[C@H](C(=O)N[C@@H](Cc1ccccc1)C(=O)N[C@@H](Cc1ccccc1)C(N)=O)[C@@H](C)O (H-GFFRRIRTFF-NH2)
A) 29.3

Q) Item: CC[C@H](C)[C@H](NC(=O)[C@H](CCCNC(=N)N)NC(=O)[C@H](CCCCN)NC(=O)[C@H](Cc1c[nH]c2ccccc12)NC(=O)[C@H](Cc1c[nH]c2ccccc12)NC(=O)CN)C(=O)N[C@@H](CCCCN)C(=O)N[C@H](C(=O)N[C@@H](Cc1c[nH]c2ccccc12)C(=O)N[C@@H](Cc1c[nH]c2ccccc12)C(N)=O)[C@@H](C)O (H-GWWKRIKTWW-NH2)
A) 14
